- Test system: SN12C renal
- method_description: NCI-60 one-dose screen, 48 h (100 = growth as untreated, 0 = no growth, -100 = all killed)
- conditions: 10 µM unless noted
Compounds without any hit were thinned out: in the full panel of roughly 83,000, 20% have a hit.
outcome_measure: growth (%)
Write the number in % without appending the unit.

Example cases with answers are listed next.
O=C(/C=C/c1ccccc1)N[C@@H](CO)Cc1cnc[nH]1 ... 105
COP(=S)(OC)Oc1ccc(SC)c(C)c1 ... 100
[N-]=[N+]=NC(C(=O)O)c1ccccc1 (stereo not given) ... 119

Request: Retrieve growth on SN12C renal; query O=C(CI)Nc1ccc(Br)cc1
Response: 15.7

Request: With SN12C renal as the test system, provide measured growth for this compound: COc1ccc(OC)c(/C=C(/C)[N+](=O)[O-])c1
Response: 32.3

Request: State growth on SN12C renal. Entry: CC12CC[C@H](O)C=C1/C(=N/O)CC1C2CCC2(C)C1CC[C@@H]2O (stereo not given in full)
Response: 104

Request: Send back SN12C renal growth of Oc1ccccc1OB(Oc1ccccc1O)N(CCCl)CCCl only.
Response: 78.4

Request: Consider the compound C/C(=N/OC(=O)N(C)C)c1cc(Cl)ccc1Cl tested on SN12C renal; state its growth.
Response: 103
